List of IC50 values.
# study-system: Enzyme (kinases of Table 30) (Homo sapiens)
# Sequence (P11309 whole entry): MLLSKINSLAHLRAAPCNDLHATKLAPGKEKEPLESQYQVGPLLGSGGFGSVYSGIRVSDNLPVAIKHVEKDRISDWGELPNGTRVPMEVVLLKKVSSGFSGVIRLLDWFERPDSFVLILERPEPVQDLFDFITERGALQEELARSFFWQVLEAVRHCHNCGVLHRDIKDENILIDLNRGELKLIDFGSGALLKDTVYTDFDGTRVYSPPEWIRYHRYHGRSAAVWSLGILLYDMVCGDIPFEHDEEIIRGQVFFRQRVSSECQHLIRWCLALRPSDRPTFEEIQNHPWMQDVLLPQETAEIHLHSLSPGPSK
# test-name: IC50 of Compound (nM) (ATP present at Km of enzyme), Table 30
# Type: biochemical
# condition-notes: Pim-1(h), ATP present at Km of enzyme; read-out: IC50 of Compound, Pim-1(h)
measured-quantity: IC50

{"molecule": "CC1CC(C)CN(c2nccc(/C=C3\\SC(=O)NC3=O)n2)C1 (stereo not drawn)", "result": "137 nM"}
{"molecule": "O=C1NC(=O)/C(=C/c2ccnc(N3CCC(CO)CC3)n2)S1", "result": "204 nM"}
{"molecule": "Cc1cccc(CNCC2CCN(c3nccc(/C=C4\\SC(=O)NC4=O)n3)CC2)n1", "result": "58 nM"}
{"molecule": "O=C1NC(=O)/C(=C/c2ccnc(N3CCC(CNCc4cccc(-c5cccs5)n4)CC3)n2)S1", "result": "54 nM"}
{"molecule": "CN(CC1CCNCC1)c1nccc(/C=C2\\SC(=O)NC2=O)n1", "result": "246 nM"}
{"molecule": "Cc1cc(CNCC2CCN(c3nccc(/C=C4\\SC(=O)NC4=O)n3)CC2)c2ccccc2n1", "result": "79 nM"}
{"molecule": "CCCCN(C)c1nccc(/C=C2\\SC(=O)NC2=O)n1", "result": "295 nM"}
{"molecule": "O=C1NC(=O)/C(=C/c2ccnc(N3CCC(CNCc4ccncc4)CC3)n2)S1", "result": "96 nM"}
{"molecule": "Nc1cccc2c1CCN(c1nccc(/C=C3\\SC(=O)NC3=O)n1)C2", "result": "170 nM"}

This collection of values is drawn from patent US9157077B2.
